meta.source: ChEMBL document CHEMBL1909621

System: Mycobacterium
ASSAY_COMMENT: Antibacterial activity against Mycobacterium luteum b-917 after 24 to 72 hrs by serial dilution technique
Assay type: functional
Please respond with reported MIC for every item in the list.
Answers are plain numbers, in µg/mL.

Here is how some compounds turned out for MIC.
Look at this compound and give its reported MIC. O=C1C(SCc2ccc(Cl)cc2)=C(SCc2ccc(Cl)cc2)C(=O)c2ccccc21
125

O=C1C(Cl)=C(SCc2ccc(Cl)cc2)C(=O)c2ccccc21 , same question.
500

Again, but for CCOC1=C(SCCCCO)C(=O)c2ccccc2C1=O
31.2

And then O=C1C(Sc2ncccn2)=C(Sc2ncccn2)C(=O)c2ccccc21 , what is it?
500

Please give the result for O=C1C(Sc2nc3ccc([N+](=O)[O-])cc3s2)=C(Sc2nc3ccc([N+](=O)[O-])cc3s2)C(=O)c2ccccc21 too.
125

Could you now look at the following compound, please?
For the compound O=C1C(SCCCCO)=C(SCCCCO)C(=O)c2ccccc21 , what MIC is on record?
15.6

====

Exercise: state measured diameter of the inhibition zone (DIZ) for each of the molecules provided.
System: Staphylococcus aureus
ASSAY_COMMENT: Antibacterial activity against Staphylococcus aureus 209-P at 0.1% after 24 hrs by diffusion technique
Assay type: functional
Give bare numbers, in mm.

Recorded diameter of the inhibition zone (DIZ) for O=C1C(Sc2nc3ccc([N+](=O)[O-])cc3s2)=C(Sc2nc3ccc([N+](=O)[O-])cc3s2)C(=O)c2ccccc21 with Staphylococcus aureus, please?
0

List diameter of the inhibition zone (DIZ) for every entry below, keeping the order given.
1. O=C1C(Sc2ncccn2)=C(Sc2ncccn2)C(=O)c2ccccc21
2. Cc1cc(C)c(CSC2=C(SCc3c(C)cc(C)cc3C)C(=O)c3ccccc3C2=O)c(C)c1
3. CCOC1=C(SCCCCO)C(=O)c2ccccc2C1=O
4. CN[C@H](CC(C)C)C(=O)N[C@H]1C(=O)N[C@@H](CC(N)=O)C(=O)N[C@H]2C(=O)N[C@H]3C(=O)N[C@H](C(=O)N[C@H](C(=O)O)c4cc(O)cc(O)c4-c4cc3ccc4O)[C@H](O)c3ccc(c(Cl)c3)Oc3cc2cc(c3O[C@@H]2O[C@H](CO)[C@@H](O)[C@H](O)[C@H]2O[C@H]2C[C@](C)(N)[C@H](O)[C@H](C)O2)Oc2ccc(cc2Cl)[C@H]1O

[6, 0, 12, 15]

Report diameter of the inhibition zone (DIZ) for every entry below.
1. O=C1C(SCCCCCCCCCO)=C(SCCCCCCCCCO)C(=O)c2ccccc21
2. O=C1C(SCc2ccco2)=C(SCc2ccco2)C(=O)c2ccccc21
3. O=C1C2=C(SCCSCCSC3=C(SCCSCCS2)C(=O)c2ccccc2C3=O)C(=O)c2ccccc21
4. O=C1C(Cl)=C(SCc2ccc(Cl)cc2)C(=O)c2ccccc21
5. O=C1CCSC2=C(SCCC(=O)OCC3(CO1)COC(=O)CCSC1=C(SCCC(=O)OC3)C(=O)c3ccccc3C1=O)C(=O)c1ccccc1C2=O
6. O=C1C(SCc2ccc(Cl)cc2)=C(SCc2ccc(Cl)cc2)C(=O)c2ccccc21
7. O=C1C(Cl)=C(SCCCCCCCCCO)C(=O)c2ccccc21
8. CCOC1=C(SCc2c(C)cc(C)cc2C)C(=O)c2ccccc2C1=O

1: 0; 2: 0; 3: 0; 4: 0; 5: 0; 6: 0; 7: 0; 8: 0

Please state recorded diameter of the inhibition zone (DIZ) (tested on Staphylococcus aureus) of O=C1C(SCCCCO)=C(SCCCCO)C(=O)c2ccccc21
18
